Target: IRAK-4 (Homo sapiens)
Assay: IRAK-4 ELISA, PBMC degradation
Format: cell-based
Design: endogenous in cells; host or cells: PBMC
Details: treated overnight
experimental.endpoint: PBMC DC90

**Q:** Which PBMC DC90 is listed for CC(C)Oc1cc2c(cc1NC(=O)c1cnn3cccnc13)CN(C1CCN(CC3CCN(c4ccc5c(c4)C(=O)N(C4CCC(=O)NC4=O)C5=O)CC3)CC1)C2=O (centres unmarked) ?
**A:** 1 nM

###

Target: IRAK-4 (Homo sapiens)
Experiment: IRAK-4 ELISA, PBMC degradation
Assay type: cell-based
Design: endogenous in cells; host or cells: PBMC
Conditions: treated overnight
experimental.endpoint: PBMC DC90

**Q:** Which PBMC DC90 is listed for CC(C)Oc1cc2c(cc1NC(=O)c1cnn3cccnc13)CN(C1CCN(CCOCCOc3ccc4c(c3)CN(C3CCC(=O)NC3=O)C4=O)CC1)C2=O (centres unmarked) ?
**A:** 2 nM

###

Answer each item with its documented DC50.
Target: IRAK-4 (Homo sapiens, UniProt Q9NWZ3)
Sequence (Q9NWZ3 1-460): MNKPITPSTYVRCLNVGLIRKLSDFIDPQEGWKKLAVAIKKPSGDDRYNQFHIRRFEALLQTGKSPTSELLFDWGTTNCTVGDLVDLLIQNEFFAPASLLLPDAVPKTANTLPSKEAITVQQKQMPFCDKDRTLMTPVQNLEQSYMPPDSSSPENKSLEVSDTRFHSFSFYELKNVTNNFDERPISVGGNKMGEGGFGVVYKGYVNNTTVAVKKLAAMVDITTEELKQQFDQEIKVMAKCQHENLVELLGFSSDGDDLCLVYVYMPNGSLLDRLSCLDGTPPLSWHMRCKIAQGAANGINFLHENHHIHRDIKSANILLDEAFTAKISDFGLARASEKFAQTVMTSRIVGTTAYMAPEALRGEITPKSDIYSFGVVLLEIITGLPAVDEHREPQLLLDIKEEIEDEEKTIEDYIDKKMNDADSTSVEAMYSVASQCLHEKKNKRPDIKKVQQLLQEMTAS
Assay: IRAK-4 ELISA, OCI-Ly10 degradation
Type: cell-based
Design: endogenous in cells
Conditions: OCI-Ly10 cells, treated overnight

**Q:** Which DC50 is listed for O=C1CCC(N2Cc3cc(N4CC(F)(CN5CCC(n6cc7cc(NC(=O)c8cnn9cccnc89)c(OCC8CC8)cc7n6)CC5)C4)ccc3C2=O)C(=O)N1 (stereo not drawn) ?
**A:** < 10 nM

**Q:** Which DC50 is listed for COc1cc2nn(C3CCN(CC4CN(c5cccc6c5n(C)c(=O)n6C5CCC(=O)NC5=O)C4)CC3)cc2cc1NC(=O)c1cnn2cccnc12 (stereo not drawn) ?
**A:** < 10 nM

**Q:** Which DC50 is listed for O=C1CCC(N2C(=O)c3ccc(N4CC(N5CCC(n6cc7cc(NC(=O)c8cnn9cccnc89)c(OCC8CC8)cc7n6)CC5)C4)cc3C2=O)C(=O)N1 (stereo not drawn) ?
**A:** 10 to 50 nM

###

Target: UniProt:Q9NWZ3
Sequence (Q9NWZ3 1-460): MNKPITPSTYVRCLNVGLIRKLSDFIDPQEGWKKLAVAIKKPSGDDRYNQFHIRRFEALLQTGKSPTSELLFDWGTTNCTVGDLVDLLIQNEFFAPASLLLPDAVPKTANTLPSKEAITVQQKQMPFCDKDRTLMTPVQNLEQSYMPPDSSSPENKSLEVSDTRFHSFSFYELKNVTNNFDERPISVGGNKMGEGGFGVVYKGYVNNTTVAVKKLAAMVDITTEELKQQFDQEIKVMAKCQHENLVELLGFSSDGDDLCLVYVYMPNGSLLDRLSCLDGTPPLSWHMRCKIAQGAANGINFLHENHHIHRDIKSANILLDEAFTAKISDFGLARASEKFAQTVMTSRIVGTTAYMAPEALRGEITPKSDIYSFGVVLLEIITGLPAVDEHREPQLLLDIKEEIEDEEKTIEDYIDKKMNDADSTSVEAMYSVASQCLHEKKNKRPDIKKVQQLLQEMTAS
Assay: IRAK-4 ELISA, OCI-Ly10 degradation
Type: cell-based
Design: endogenous in cells
Details: OCI-Ly10, OCI-Ly10 cells, treated overnight
Answer each item with its documented Dmax.

**Q:** Which Dmax is listed for O=C1CCC(N2Cc3cc(N4CCN(CCN5CCC(n6cc7cc(NC(=O)c8cnn9cccnc89)c(OCC8CC8)cc7n6)CC5)CC4)ccc3C2=O)C(=O)N1 (stereo not shown) ?
**A:** ≥ 90%

**Q:** Which Dmax is listed for O=C1CCC(N2C(=O)c3ccc(CCN4CCC(N5Cc6cc(NC(=O)c7cnn8cccnc78)c(N7CCOCC7)nc6C5=O)CC4)cc3C2=O)C(=O)N1 (stereo not shown) ?
**A:** 70 to 80%

**Q:** Which Dmax is listed for O=C1CCC(N2C(=O)c3ccc(N4CCN(CCN5CCC(n6cc7cc(NC(=O)c8cnn9cccnc89)c(OCC8CC8)cc7n6)CC5)CC4)cc3C2=O)C(=O)N1 (stereo not shown) ?
**A:** ≥ 90%

**Q:** Which Dmax is listed for O=C1CCC(N2Cc3cc(N4CC(CN5CCC(n6cc7cc(NC(=O)c8cnn9cccnc89)c(OCC8CC8)cc7n6)CC5)C4)ccc3C2=O)C(=O)N1 (stereo not shown) ?
**A:** ≥ 90%

**Q:** Which Dmax is listed for O=C1CCC(N2C(=O)c3ccc(CCN4CCC(n5cc6cc(NC(=O)c7cnn8cccnc78)c(OCC7CC7)cc6n5)CC4)cc3C2=O)C(=O)N1 (stereo not shown) ?
**A:** ≥ 90%

**Q:** Which Dmax is listed for CC(C)Oc1cc2c(cc1NC(=O)c1cnn3cccnc13)CN(C1CCN(CC3(F)CN(c4ccc5c(c4)C(=O)N(C4CCC(=O)NC4=O)C5=O)C3)CC1)C2=O (stereo not shown) ?
**A:** ≥ 90%

**Q:** Which Dmax is listed for CC(C)Oc1cc2c(cc1NC(=O)c1cnn3cccnc13)CN(C1CCN(C3CN(c4ccc5c(c4)C(=O)N(C4CCC(=O)NC4=O)C5=O)C3)CC1)C2=O (stereo not shown) ?
**A:** ≥ 90%

**Q:** Which Dmax is listed for COc1cc2nn(C3CCN(CC4CCN(c5ccc6c(c5)C(=O)N(C5CCC(=O)NC5=O)C6=O)CC4)CC3)cc2cc1NC(=O)c1cnn2cc(C)cnc12 (stereo not shown) ?
**A:** 80 to 90%

**Q:** Which Dmax is listed for COc1cc(N2CCC(CN3CCC(N4Cc5cc(NC(=O)c6cnn7cccnc67)c(OC(C)C)cc5C4=O)CC3)CC2)cc2c1C(=O)N(C1CCC(=O)NC1=O)C2 (stereo not shown) ?
**A:** 80 to 90%

**Q:** Which Dmax is listed for O=C1CCC(N2C(=O)c3ccc(N4CCC(CN5CCC(N6Cc7cc(NC(=O)c8cnn9cccnc89)c(N8CCOCC8)cc7C6=O)CC5)CC4)cc3C2=O)C(=O)N1 (stereo not shown) ?
**A:** 80 to 90%

**Q:** Which Dmax is listed for COc1cc2nn(C3CCN(CC4CCN(c5ccc6c(c5)CN(C5CCC(=O)NC5=O)C6=O)CC4)CC3)cc2cc1NC(=O)c1cnn2cccnc12 (stereo not shown) ?
**A:** 80 to 90%

**Q:** Which Dmax is listed for CC1(CN2CCC(n3cc4cc(NC(=O)c5cnn6cccnc56)c(OCC5CC5)cc4n3)CC2)CN(c2ccc3c(c2)C(=O)N(C2CCC(=O)NC2=O)C3=O)C1 (stereo not shown) ?
**A:** ≥ 90%

**Q:** Which Dmax is listed for O=C1CCC(NC(=O)c2ccc(N3CC(CN4CCC(n5cc6cc(NC(=O)c7cnn8cccnc78)c(OCC7CC7)cc6n5)CC4)C3)cc2F)C(=O)N1 (stereo not shown) ?
**A:** ≥ 90%

**Q:** Which Dmax is listed for COc1cc2nn(C[C@@H](F)COCC3CCN(c4ccc5c(c4)C(=O)N(C4CCC(=O)NC4=O)C5=O)CC3)cc2cc1NC(=O)c1cnn2cccnc12 (stereo partly shown) ?
**A:** < 70%

**Q:** Which Dmax is listed for CC(C)Oc1cc2c(cc1NC(=O)c1cnn3cccnc13)CN([C@H]1CC[C@@H](N3CC4(CN(c5ccc6c(c5)C(=O)N(C5CCC(=O)NC5=O)C6=O)C4)C3)CC1)C2=O (stereo partly shown) ?
**A:** ≥ 90%

**Q:** Which Dmax is listed for COc1cc2nn(C3CCN(CC4CN(c5ccc6c(c5)C(=O)N(C5CCC(=O)NC5=O)C6=O)C4)CC3)cc2cc1NC(=O)c1cnn2cc(Cl)cnc12 (stereo not shown) ?
**A:** ≥ 90%

**Q:** Which Dmax is listed for O=C1CCC(N2Cc3cc(N4CC(F)(CN5CCC(n6cc7cc(NC(=O)c8cnn9cccnc89)c(OCC8CC8)cc7n6)CC5)C4)ccc3C2=O)C(=O)N1 (stereo not shown) ?
**A:** 70 to 80%

**Q:** Which Dmax is listed for COc1cc2nn([C@H]3CC[C@H](N(C)C4CN(c5ccc6c(c5)CN(C5CCC(=O)NC5=O)C6=O)C4)CC3)cc2cc1NC(=O)c1cnn2cccnc12 (stereo partly shown) ?
**A:** ≥ 90%

**Q:** Which Dmax is listed for O=C1CCC(N2Cc3cc(N4CCC(CN5CCC(n6cc7cc(NC(=O)c8cnn9cccnc89)c(OCC8CC8)cc7n6)CC5)CC4)ccc3C2=O)C(=O)N1 (stereo not shown) ?
**A:** ≥ 90%

**Q:** Which Dmax is listed for O=C1CCC(N2C(=O)c3ccc(N4CC(CN5CCC(n6cc7cc(CC(=O)c8cnn9cc(Cl)cnc89)c(OCC8CC8)cc7n6)CC5)C4)cc3C2=O)C(=O)N1 (stereo not shown) ?
**A:** ≥ 90%

**Q:** Which Dmax is listed for O=C1CCC(NC(=O)c2ccc(N3CCC(CN4CCC(n5cc6cc(NC(=O)c7cnn8cccnc78)c(OCC7CC7)cc6n5)CC4)CC3)cc2F)C(=O)N1 (stereo not shown) ?
**A:** ≥ 90%

**Q:** Which Dmax is listed for COc1cc2nn([C@H]3CC[C@H](N(C)CC#Cc4ccc5c(c4)C(=O)N(C4CCC(=O)NC4=O)C5=O)CC3)cc2cc1NC(=O)c1cnn2cccnc12 (stereo partly shown) ?
**A:** ≥ 90%
